These entries and their values trace back to paper PMC12671567.

target: recombinant human Siglec-10 protein (Siglec-10 antigen coated in ELISA) (Homo sapiens (Human)., UniProt Q96LC7)
Sequence (Q96LC7 17-550): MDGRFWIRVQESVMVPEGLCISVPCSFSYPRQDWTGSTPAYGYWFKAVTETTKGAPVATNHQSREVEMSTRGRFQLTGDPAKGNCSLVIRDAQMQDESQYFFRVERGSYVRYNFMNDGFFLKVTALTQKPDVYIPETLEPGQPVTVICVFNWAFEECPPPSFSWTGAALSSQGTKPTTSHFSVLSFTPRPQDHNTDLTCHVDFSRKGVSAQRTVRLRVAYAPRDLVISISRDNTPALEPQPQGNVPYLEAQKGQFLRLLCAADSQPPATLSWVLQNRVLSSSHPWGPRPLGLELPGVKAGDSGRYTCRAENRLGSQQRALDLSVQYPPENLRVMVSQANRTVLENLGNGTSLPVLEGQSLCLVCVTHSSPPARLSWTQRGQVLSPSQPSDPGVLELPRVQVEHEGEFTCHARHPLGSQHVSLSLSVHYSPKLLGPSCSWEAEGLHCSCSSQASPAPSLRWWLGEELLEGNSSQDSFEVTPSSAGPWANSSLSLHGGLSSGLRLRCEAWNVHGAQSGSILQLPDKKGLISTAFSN

[
  {
    "BINDER": "48D6F4 (antibody, V domains shown) VH: EVRLVESGGGLVQPGGSLRLSCAASGFTFTDYYMSWVRQPPGKALEWLGFIRNKPSGYTTEYSASVKGRFTFSRDNSQSILYLQMNALRAEDSATYYCARYISLWLLGYLDVWGTGTTVTVSS VL: DVQITQSPSYLAASPGETIIINCRTSKSISKYLAWYQEKPGKTNNLLIYSGSTLQSGIPSRFSGSGSGTDFSLTISSLEPEDFAIYYCQQHNEYPLTFGAGTKLELN",
    "binding result": "binds"
  },
  {
    "BINDER": "56C3E6 (antibody, V domains shown) VH: EVNLVESGGGLVQPGDSLSLSCATSGFTFTDYYMSWVRQPPGKALEWLGFIRNKANGYTTEYSASVKGRFTISRDNSQSILYLQMNALRPEDSATYYCASPVLRGFAYWGRGTLVTVSA VL: DIQMTQSPASLSASVGETVTITCRASGNIHNYLAWYQQKQGKSPQLLVYNAKTLADGVPSRFSGSGSGTQYSLKINSLQPEDFGSYYCQHFWSTPFTFGSGTKLEIK",
    "binding result": "binds"
  },
  {
    "BINDER": "35B3F9 (antibody, V domains shown) VH: EVKLVESGGGLVQPGGSLRLSCAASGFTFTDYYMSWVRQPPGKALEWLGFIRNKVSGYTTDNSASVKGRFTISRDDSQSIVYLQMNDLRAEDSATYYCARYVSLWLLGYFDVWGTGTTVTVSS VL: DVQITQSPSYLAASPGETITINCRASKSISKYLAWYQEKPGKTNKLLIYSGSTLQSGIPSRFSGSGSGTDFTLTISSLEPEDFAMYYCQQHNEYPLTFGTGTKLELK",
    "binding result": "binds"
  }
]
